Every entry's value here was drawn from the RNAGym collection of RNA variant scans (doi:10.7554/elife.80360).

B1: Hairpin Ribozyme (parent)
chain: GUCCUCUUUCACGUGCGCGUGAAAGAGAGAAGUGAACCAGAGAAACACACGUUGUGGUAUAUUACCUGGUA

# Variants of: B1
# assayRemarks: self-cleavage, relative activity (ratio to wild type); higher = more cleavage; co-transcriptional
Everything with self-cleavage lower than 0.2 is not met; everything else, including exactly 0.2, is met.

Would you please look over these solved cases?
- mutationLabel: "G15A G68A"
  answerLabel: "met"
- mutationLabel: "A43G U53C"
  answerLabel: "not met"
- mutationLabel: "U8A A31C"
  answerLabel: "not met"

Item G42C A61G with self-cleavage of 0.2 or above?
not met

Input G21A A43G
not met
